Recorded values, source the Human Domainome abundance scans (Beltran et al. 2025).

B1: POU domain, class 2, transcription factor 1, residues 285 to 354; numbered along this chain, P14859 (parent)
chain: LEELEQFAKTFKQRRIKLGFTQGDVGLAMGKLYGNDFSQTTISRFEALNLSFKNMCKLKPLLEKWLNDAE

- Variants of: B1
- ASSAY COMMENT: abundance fitness (aPCA) (normalised: wild type 0, dead -1); higher = more abundant; growth selection in yeast, the domain comes from the species named
- DETAILS: Homo sapiens
Listing: abundance fitness of selected variants
MEASUREMENT NAME: abundance fitness

> print(dat)
    variant  measured.result
 1     L32G           -0.107
 2     L32E           -0.005
 3     L32F           -0.193
 4      A8S           -0.082
 5     Q13P           -0.202
 6     D24S           -0.097
 7     G19V           -0.214
 8     K31L           -0.166
 9     F20T           -0.253
10     F11G           -0.848
11     E70P           -0.349
12     R44Y           -0.155
13     Q22E           -0.024
14      E5N           -0.059
15      Q6W           -0.058
16      A8I           -0.008
17     L50Y            -0.03
18     D68K           -0.018
19     R44I           -0.794
20     M29W           -0.625
21     F11S           -0.206
22     L50G           -0.074
